Origin of the recorded values: patent US9790262B2

assayed system: T1, GIP receptor (UniProt P48546 22-466, limits assumed)
T1 sequence (looked up): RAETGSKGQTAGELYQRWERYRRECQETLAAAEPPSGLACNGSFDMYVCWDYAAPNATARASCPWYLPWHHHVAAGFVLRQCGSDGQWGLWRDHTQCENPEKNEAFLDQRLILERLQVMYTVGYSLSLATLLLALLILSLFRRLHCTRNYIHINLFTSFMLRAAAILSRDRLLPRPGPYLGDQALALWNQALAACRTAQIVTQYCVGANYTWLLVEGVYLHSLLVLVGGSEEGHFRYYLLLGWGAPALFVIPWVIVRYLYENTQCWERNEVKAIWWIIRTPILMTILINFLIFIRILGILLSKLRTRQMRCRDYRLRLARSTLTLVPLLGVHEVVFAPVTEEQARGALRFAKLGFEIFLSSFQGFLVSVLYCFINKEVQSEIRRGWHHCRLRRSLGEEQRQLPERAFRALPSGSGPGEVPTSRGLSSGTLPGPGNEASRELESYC
experiment description: cell-based or functional assay
Non-standard residues stand in square brackets, D forms with d. No end group written: not given here. APC = 3-aminopyrrolidine-4-carboxylic acid (cyclic beta amino acid); ACPC = 2-aminocyclopentanecarboxylic acid (cyclic beta amino acid); Aib = CC(C)(N)C(=O)O
metric: cAMP agonist: Max Response (%)
Only the number, expressed in %, is required.

YXEGTFTSDYSIYXDKXAAXXFVXWLLXG (B = alpha-aminoisobutyric acid (Aib) at positions 2 and 20; alpha-to-beta3 amino acid replacement(s) at the bold and underlined position(s) of the printed sequence, which this text does not show) [2005]    99.2
Y[Aib]EGTFTSDYSIYLDK[ACPC]AA[Aib][ACPC]FV[APC]WLL[ACPC]G [2010]    96.9
YXEGTFTSDYSXYLDXQAXXEFXNWXLAG (B = alpha-aminoisobutyric acid (Aib) at positions 2 and 20; alpha-to-beta3 amino acid replacement(s) at the bold and underlined position(s) of the printed sequence, which this text does not show) [2001]    16.5
YXEGTFTSDYSXYLXKQAXXEXVNWXLAX (B = alpha-aminoisobutyric acid (Aib) at positions 2 and 20; alpha-to-beta3 amino acid replacement(s) at the bold and underlined position(s) of the printed sequence, which this text does not show) [2004]    99.1

Qu. Which cAMP agonist: Max Response is reported for this binder? Y[Aib]EGTFTSDYSIYLD[APC]QA[ACPC][Aib]EF[ACPC]NW[ACPC]LAG [2008]
Ans. 82.2
